# TESTED_ON: human ether-à-go-go-related gene (hERG) potassium channel (human)
# Sequence (Q12809 whole entry, looked up): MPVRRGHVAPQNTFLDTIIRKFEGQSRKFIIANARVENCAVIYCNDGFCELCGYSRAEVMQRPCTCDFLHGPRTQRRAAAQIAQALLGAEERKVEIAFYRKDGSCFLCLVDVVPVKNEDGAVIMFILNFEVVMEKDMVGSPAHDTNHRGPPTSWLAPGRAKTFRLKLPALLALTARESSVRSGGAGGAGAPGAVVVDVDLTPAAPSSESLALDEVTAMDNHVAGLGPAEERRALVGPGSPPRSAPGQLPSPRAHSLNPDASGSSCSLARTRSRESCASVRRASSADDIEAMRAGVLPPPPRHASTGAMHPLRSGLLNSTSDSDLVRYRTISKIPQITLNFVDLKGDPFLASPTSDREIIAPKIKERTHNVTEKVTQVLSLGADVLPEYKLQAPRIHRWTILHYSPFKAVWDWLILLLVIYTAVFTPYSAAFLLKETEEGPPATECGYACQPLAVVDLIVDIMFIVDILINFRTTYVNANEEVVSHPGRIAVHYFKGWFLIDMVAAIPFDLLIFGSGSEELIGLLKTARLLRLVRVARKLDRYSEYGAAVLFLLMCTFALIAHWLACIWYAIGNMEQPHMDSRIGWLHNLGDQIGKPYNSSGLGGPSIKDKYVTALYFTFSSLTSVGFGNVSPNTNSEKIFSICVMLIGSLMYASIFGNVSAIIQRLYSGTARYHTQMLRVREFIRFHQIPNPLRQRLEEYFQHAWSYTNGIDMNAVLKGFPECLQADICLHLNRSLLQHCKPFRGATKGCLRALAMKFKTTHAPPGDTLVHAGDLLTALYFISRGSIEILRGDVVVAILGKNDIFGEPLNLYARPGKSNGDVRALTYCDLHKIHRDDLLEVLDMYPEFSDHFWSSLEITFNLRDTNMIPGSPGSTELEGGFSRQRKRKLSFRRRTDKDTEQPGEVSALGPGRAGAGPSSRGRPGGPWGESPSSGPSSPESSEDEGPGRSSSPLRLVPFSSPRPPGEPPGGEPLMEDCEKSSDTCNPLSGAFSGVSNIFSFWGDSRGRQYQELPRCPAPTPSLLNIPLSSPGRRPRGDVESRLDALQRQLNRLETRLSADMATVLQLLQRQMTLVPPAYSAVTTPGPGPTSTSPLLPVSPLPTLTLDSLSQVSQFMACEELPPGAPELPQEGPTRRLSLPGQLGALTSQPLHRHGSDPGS
# TEST: primary screen, population patch clamp on CHO cells stably expressing hERG; higher = less effect of the substance;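 also: peak tail current of the secondary pulse compared with the same well before compound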
# Experimental: Briefly, Chinese hamster ovary (CHO) cells stably expressing the hERG channel were dislodged from tissue culture flasks and dispensed into PPC plates. […] During the recording, background leak currents were estimated by a 100 ms step to -80 mV from an initial holding potential of -70 mV and subtracted from the subsequent current measurement. The campaign was conducted in two phases using slight differences in recording protocol. […]
The whole screen tested about 310,000 compounds, of which about 14,000 (4.5%) showed an effect of 50% or more. The effect is printed as a negative number. This is one part of a sample in which strong results are shown more often than they occur.
READOUT_KIND: hERG current change (%, negative = inhibition) at 10uM (%)
Express your answer in %, writing the number without its unit.

**Q:** Which hERG current change (%, negative = inhibition) at 10uM value belongs to COc1cccc(CN2CCN(c3cccc(C(F)(F)F)c3)CC2)c1OC ?
**A:** -23.9

**Q:** Which hERG current change (%, negative = inhibition) at 10uM value belongs to CCOc1ccc(C2=Nn3c(nnc3-c3ccco3)SC2)cc1 ?
**A:** -10.7

**Q:** Which hERG current change (%, negative = inhibition) at 10uM value belongs to CCN(CC(=O)Nc1ccc(OC)cc1)C(=O)c1cc(-c2cccs2)nn1-c1ccccc1 ?
**A:** -15.4

**Q:** Which hERG current change (%, negative = inhibition) at 10uM value belongs to COc1ccc(CC(C)N2CCN(c3cccc(C(F)(F)F)c3)CC2)cc1OC (centres unmarked) ?
**A:** -65.9

**Q:** Which hERG current change (%, negative = inhibition) at 10uM value belongs to CC(C)C(=O)NC(c1ccco1)c1c(O)ccc2ccccc12 (centres unmarked) ?
**A:** 14.1

**Q:** Which hERG current change (%, negative = inhibition) at 10uM value belongs to CCOC(=O)COc1nc(Nc2ccccc2C)nc(N(C)C)n1 ?
**A:** 1.92

**Q:** Which hERG current change (%, negative = inhibition) at 10uM value belongs to COc1ccc(CC(C)N2CCN(c3ccccc3)CC2)cc1OC (centres unmarked) ?
**A:** -64

**Q:** Which hERG current change (%, negative = inhibition) at 10uM value belongs to Cc1ccc(C2=NS(=O)(=O)N(C)C(C(=O)NCc3ccccc3)=C2)cc1 ?
**A:** -0.52

**Q:** Which hERG current change (%, negative = inhibition) at 10uM value belongs to CC(Sc1nnc(-c2cccnc2)o1)C(=O)NC1CCCCC1 (centres unmarked) ?
**A:** 14.9

**Q:** Which hERG current change (%, negative = inhibition) at 10uM value belongs to O=C(O)C1CC(=O)N(CCc2ccccc2)C1 (centres unmarked) ?
**A:** 6.79

**Q:** Which hERG current change (%, negative = inhibition) at 10uM value belongs to O=C(Nc1ccc(Br)cn1)c1cccc2ccccc12 ?
**A:** 12.2

**Q:** Which hERG current change (%, negative = inhibition) at 10uM value belongs to COc1ccc(CC(C)N2CCN(c3ccccc3OC)CC2)cc1OC (centres unmarked) ?
**A:** -62.1

**Q:** Which hERG current change (%, negative = inhibition) at 10uM value belongs to COc1cc(C)c(Br)cc1S(=O)(=O)N1CCCC1 ?
**A:** -22.1

**Q:** Which hERG current change (%, negative = inhibition) at 10uM value belongs to COc1ccc2nc(Nc3nc4cc5c(cc4s3)OCO5)sc2c1 ?
**A:** 6.67

**Q:** Which hERG current change (%, negative = inhibition) at 10uM value belongs to O=C(CN1C(=O)C2CC=CCC2C1=O)NCC(=O)Nc1ccc(F)c(F)c1F (centres unmarked) ?
**A:** 7.55

**Q:** Which hERG current change (%, negative = inhibition) at 10uM value belongs to COc1ccccc1CC(=O)N1CCN(c2cccc(C(F)(F)F)c2)CC1 ?
**A:** -9.71

**Q:** Which hERG current change (%, negative = inhibition) at 10uM value belongs to COc1ccc(C(=O)NC(=S)Nc2ccc(N3CCN(C(C)=O)CC3)cc2)cc1[N+](=O)[O-] ?
**A:** -2.14

**Q:** Which hERG current change (%, negative = inhibition) at 10uM value belongs to COc1ccc(C2=Nn3c(nnc3-c3ccco3)SC2)cc1 ?
**A:** -63.6

**Q:** Which hERG current change (%, negative = inhibition) at 10uM value belongs to Cc1nn(-c2ccccc2)c(C)c1NC(=O)COC(=O)C1CC(=O)N(CCc2ccccc2)C1 (centres unmarked) ?
**A:** 9.52

**Q:** Which hERG current change (%, negative = inhibition) at 10uM value belongs to COc1ccc(CC(=O)N2CCN(c3ccccc3)CC2)cc1OC ?
**A:** 18.4

**Q:** Which hERG current change (%, negative = inhibition) at 10uM value belongs to CCCCCCc1cc2cc(-c3nnc(-c4ccccc4)o3)c(=O)oc2cc1O ?
**A:** 5.15

**Q:** Which hERG current change (%, negative = inhibition) at 10uM value belongs to O=C(OCc1ccccc1Cl)C1CC(=O)N(Cc2ccco2)C1 (centres unmarked) ?
**A:** 11.4

**Q:** Which hERG current change (%, negative = inhibition) at 10uM value belongs to Cc1cc(NC(=O)c2ccc(Cl)cc2)ccc1NC(=O)c1ccccc1Cl ?
**A:** 9.97

**Q:** Which hERG current change (%, negative = inhibition) at 10uM value belongs to O=C(NC(=S)Nc1ccc(S(=O)(=O)N2CCCCCC2)cc1)c1cccs1 ?
**A:** -5.3

**Q:** Which hERG current change (%, negative = inhibition) at 10uM value belongs to CCOC(=O)c1ccccc1NC(=O)COC(=O)C1CCCC1 ?
**A:** -2.49

**Q:** Which hERG current change (%, negative = inhibition) at 10uM value belongs to O=C(Nc1ccccc1)C1CC(=O)N(Cc2ccccc2)C1 (centres unmarked) ?
**A:** 2.14

**Q:** Which hERG current change (%, negative = inhibition) at 10uM value belongs to O=C(OCc1ccc([N+](=O)[O-])cc1)C1CC(=O)N(Cc2ccccc2Cl)C1 (centres unmarked) ?
**A:** -66.4

**Q:** Which hERG current change (%, negative = inhibition) at 10uM value belongs to COc1ccc(/C=N/N2CCN(c3ccccc3OC)CC2)cc1OC ?
**A:** -19.7

**Q:** Which hERG current change (%, negative = inhibition) at 10uM value belongs to O=C(NCCN1CCOCC1)c1ccc(Cl)nc1Cl ?
**A:** -2.02

**Q:** Which hERG current change (%, negative = inhibition) at 10uM value belongs to O=C1CCC(=O)N1CC(=O)N1c2ccccc2Sc2ccccc21 ?
**A:** 3.19

**Q:** Which hERG current change (%, negative = inhibition) at 10uM value belongs to Nc1cc2ccccc2oc1=O ?
**A:** 8.37

**Q:** Which hERG current change (%, negative = inhibition) at 10uM value belongs to Cc1ccccc1NC(=O)Nc1ccc2c(c1)CCC2 ?
**A:** 24.4

**Q:** Which hERG current change (%, negative = inhibition) at 10uM value belongs to CCCCN=C1CC(C)(C)CC(=O)/C1=C(/O)CCCN1C(=O)c2ccccc2C1=O ?
**A:** -61.4

**Q:** Which hERG current change (%, negative = inhibition) at 10uM value belongs to CCOc1ccc(COC(=O)C2CC(=O)N(CCc3ccccc3)C2)cc1OC (centres unmarked) ?
**A:** -21.6

**Q:** Which hERG current change (%, negative = inhibition) at 10uM value belongs to C=CCn1c(N/N=C/c2ccc(O)cc2)nc2ccccc2c1=O ?
**A:** -17.9

**Q:** Which hERG current change (%, negative = inhibition) at 10uM value belongs to COc1ccc(OC)c(-n2c(=S)[nH]c3cc(C(=O)N4CCC(C(N)=O)CC4)ccc3c2=O)c1 ?
**A:** -2.14

**Q:** Which hERG current change (%, negative = inhibition) at 10uM value belongs to Nc1nnc(SCC(=O)NCCOc2ccccc2)s1 ?
**A:** 4.23

**Q:** Which hERG current change (%, negative = inhibition) at 10uM value belongs to CC1(C)CC(=O)/C(=C(\O)CCCN2C(=O)c3ccccc3C2=O)C(=NCCO)C1 ?
**A:** 11.7

**Q:** Which hERG current change (%, negative = inhibition) at 10uM value belongs to O=C(Nc1ccc(S(=O)(=O)Nc2nccs2)cc1)c1cc(-c2ccncc2)nc2ccccc12 ?
**A:** 10.1

**Q:** Which hERG current change (%, negative = inhibition) at 10uM value belongs to COc1ccc(S(=O)(=O)N2CCN(c3ccccc3OC)CC2)cc1OC ?
**A:** -2.71

**Q:** Which hERG current change (%, negative = inhibition) at 10uM value belongs to O=C(O)CN=C1CC(c2ccccc2)CC(=O)/C1=C(/O)CCCN1C(=O)c2ccccc2C1=O (centres unmarked) ?
**A:** 1.09
